Test system: U2OS
Test: Multiplex assay against U2OS
Format: toxicity, cell-based
Details: human, 48 h, 1 µM, compound concentration 1 uM, replicate 1
Label yes (1) when Population Membrane Permeable-Phenotype (%) is strictly below 4%; otherwise label no (0).

{"compound": "CCn1c(-c2nonc2N)nc2cnc(Oc3cccc(NC(=O)c4ccc(OCCN5CCOCC5)cc4)c3)cc21 [GSK-269962A]", "label value": "no (0)"}
{"compound": "CC(=O)c1cc(-c2cc(C(=O)NC3CC3)ccc2C)c2ncccn12", "label value": "yes (1)"}
{"compound": "CCC(=O)O[C@]1(C(=O)SCF)[C@H](C)C[C@H]2[C@@H]3C[C@H](F)C4=CC(=O)C=C[C@]4(C)[C@@]3(F)[C@@H](O)C[C@@]21C [FLUTICASONE PROPIONATE]", "label value": "no (0)"}
{"compound": "CC(C)N1CCC(C)(C)c2cc(C#Cc3ccc(C(=O)O)cc3)ccc21", "label value": "yes (1)"}
{"compound": "CCCn1c(=O)c2[nH]c(C34CC5CC(CC3C5)C4)nc2n(CCC)c1=O [ROLOFYLLINE]", "label value": "yes (1)"}
{"compound": "COc1ccc(NS(=O)(=O)c2sc3ccc(Cl)cc3c2C)cc1N1CCNCC1.Cl", "label value": "yes (1)"}

* * *

Overview of recorded Population Mitotic Cells (%) for various molecules
Tested on: HEK-293T
Experiment: Multiplex assay against HEK293T
Assay type: toxicity, cell-based
Settings: human, 24 h, 1 µM, compound concentration 1 uM, replicate 1

{"chemical structure": "O=C(O)c1ccc2cc(-c3ccc(O)c(C45CC6CC(CC(C6)C4)C5)c3)ccc2c1", "Population Mitotic Cells (%)": "62%"}
{"chemical structure": "CCOc1cc2ncc(C#N)c(Nc3ccc(OCc4cccc(F)c4)c(Cl)c3)c2cc1NC(=O)/C=C/CN(C)C", "Population Mitotic Cells (%)": "68%"}
{"chemical structure": "c1ccc2oc(-c3csc(C4CCN(Cc5nc6ncccc6[nH]5)CC4)n3)cc2c1", "Population Mitotic Cells (%)": "79%"}
{"chemical structure": "CC(=O)c1cc(-c2cc(C(=O)NC3CC3)ccc2C)c2ncccn12", "Population Mitotic Cells (%)": "48%"}
{"chemical structure": "COc1cc(N2CCC(N(C)C)CC2)ccc1Nc1ncc(Cl)c(Nc2ccccc2P(C)(C)=O)n1", "Population Mitotic Cells (%)": "85%"}

* * *

System: U2OS
Test: Multiplex assay against U2OS
Format: toxicity, cell-based
Conditions: human, 12 h, 10 µM, compound concentration 10 uM, replicate 2
Flag rule - Population Tubulin-Different-Phenotype (%) less than 40% flags class 1; the remaining entries get class 0.

{"compound": "CC(=O)c1cc(-c2cc(C(=O)NC3CC3)ccc2C)c2ncccn12", "label value": "class 1"}
{"compound": "COc1cc2c(NC3CCN(C(C)C)CC3)nc(N3CCC(F)(F)CC3)nc2cc1OCCCN1CCCC1", "label value": "class 0"}
{"compound": "CCOc1cc(N2CCC(O)CC2)ccc1Nc1ncc2c(n1)N(C1CCCC1)CCC(=O)N2C", "label value": "class 1"}
{"compound": "CCC(=O)O[C@]1(C(=O)SCF)[C@H](C)C[C@H]2[C@@H]3C[C@H](F)C4=CC(=O)C=C[C@]4(C)[C@@]3(F)[C@@H](O)C[C@@]21C [FLUTICASONE PROPIONATE]", "label value": "class 1"}
{"compound": "CCc1cc2c(cc1CC)CC(NC[C@H](O)c1ccc(O)c3[nH]c(=O)ccc13)C2", "label value": "class 0"}
{"compound": "CN(C)C/C=C/C(=O)Nc1cc2c(Nc3ccc(F)c(Cl)c3)ncnc2cc1O[C@H]1CCOC1.O=C(O)/C=C\\C(=O)O.O=C(O)/C=C\\C(=O)O [AFATINIB DIMALEATE]", "label value": "class 0"}
{"compound": "O=C(O)c1ccc2cc(-c3ccc(O)c(C45CC6CC(CC(C6)C4)C5)c3)ccc2c1", "label value": "class 1"}
